tested on: SEM cells; experiment: cell viability relative to DMSO control; higher = less cytotoxic; details: RPMI 5 mM glucose + 10% dialyzed FBS; 48 h; 0.0211 µM
Exercise: for every item that follows, state its recorded cell viability.
All answers are understood in %, so give the number only.

QUERY: Enter reported cell viability observed with SEM cells for `Cn1cnc(-c2cc3nccc(Oc4ccc(NC(=S)NC(=O)Cc5ccccc5)cc4F)c3s2)c1`
RESULT: 43.8

QUERY: Reported cell viability for SEM cells, given `CNC(=O)c1ccc(N2C(=S)N(c3ccc(C#N)c(C(F)(F)F)c3)C(=O)C2(C)C)cc1F` ?
RESULT: 116

QUERY: Identify the measured cell viability of `Cc1cc(-c2nnc3n2CCCCC3)c(C)n1-c1ccccc1` for SEM cells.
RESULT: 131

QUERY: Look up cell viability with SEM cells for this compound: `COc1ccc2c(OCc3nnc4ccc(-c5ccccc5)nn34)ccnc2c1`
RESULT: 111

QUERY: Quick check: cell viability on SEM cells, item `NCCCCCC(=O)O` ?
RESULT: 39.5

QUERY: What reported cell viability corresponds to `CCCOc1ccc2[nH]c(NC(=O)OC)nc2c1` on SEM cells?
RESULT: 80.2

QUERY: // fetch SEM cells cell viability for `Cc1ccc(NC(=O)Nc2cc(C(F)(F)F)ccc2F)cc1Nc1ccc2c(c1)NC(=O)/C2=C\c1ccc[nH]1`
RESULT: 111

QUERY: So what cell viability did `COc1cc(NC(=O)c2ccc(-c3ccc(Cl)cc3)o2)cc(OC)c1` get with SEM cells?
RESULT: 102

QUERY: Tell me reported cell viability for `CN1CCN(Cc2ccc(NC(=O)Nc3ccc(Oc4cc(NC(=O)C5CC5)ncn4)cc3)cc2C(F)(F)F)CC1` , tested with SEM cells.
RESULT: 36.5

QUERY: Find cell viability (SEM cells) for the entry `O=C(C[C@@H]1C/C=C\CCC(=O)O[C@H](c2ccccc2)CNC1=O)NCc1ccc(Cl)cc1`
RESULT: 121

QUERY: Which measured cell viability belongs to `CC[C@H](NC(C)C)[C@H](O)c1ccc(O)c2[nH]c(=O)ccc12` , tested on SEM cells?
RESULT: 109

QUERY: Short answer please: cell viability, SEM cells, entry `C=CC(=O)Nc1cccc(Oc2nc(Nc3ccc(N4CCN(C)CC4)cc3OC)ncc2Cl)c1`
RESULT: 58.2
